The reported numbers originate from patent US8541418B2.

molecular target: PLK1 (Homo sapiens, UniProt P53350); assay: PLK TR-FRET peptide assay, PLK1; format: biochemical; conditions: GST-PLK1, 60 min reaction
Sequence (P53350 whole entry): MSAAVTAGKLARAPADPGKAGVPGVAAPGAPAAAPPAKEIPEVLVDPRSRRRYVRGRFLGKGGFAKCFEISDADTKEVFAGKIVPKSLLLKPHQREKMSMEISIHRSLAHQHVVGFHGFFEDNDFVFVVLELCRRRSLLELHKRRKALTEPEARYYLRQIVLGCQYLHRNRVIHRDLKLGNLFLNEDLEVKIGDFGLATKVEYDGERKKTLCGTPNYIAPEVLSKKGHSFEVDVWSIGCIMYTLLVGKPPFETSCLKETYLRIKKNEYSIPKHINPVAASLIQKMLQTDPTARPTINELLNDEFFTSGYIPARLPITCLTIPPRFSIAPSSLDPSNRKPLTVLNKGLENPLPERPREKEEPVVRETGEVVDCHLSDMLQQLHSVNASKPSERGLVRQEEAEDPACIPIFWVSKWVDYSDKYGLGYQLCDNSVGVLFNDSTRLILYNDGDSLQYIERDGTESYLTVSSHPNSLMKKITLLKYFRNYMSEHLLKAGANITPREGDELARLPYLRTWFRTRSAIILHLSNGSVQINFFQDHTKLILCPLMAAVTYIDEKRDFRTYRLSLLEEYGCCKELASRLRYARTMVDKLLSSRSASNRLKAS
Listing: IC50 of selected compounds

compound: CC[C@@H]1C(=O)N(C)c2cnc(-c3cncnc3-c3nccs3)nc2N1C(C)C [Example 197]
IC50: 1 to 10 µM

// returns reported IC50 for input CC[C@@]12CCCN1c1nc(-n3nccc3-c3ccccc3)ncc1N(C)C2=O [Example 193]
1 to 10 µM

What does the record list as IC50 for CC[C@]12CCCCN1c1nc(-n3ccnc3-c3ccc(F)cc3F)ncc1N(C)C2=O [Example 270] ?
> 50 µM

Need IC50, item CCC1C(=O)N(C)c2cnc(-n3ccnc3)nc2N1c1cccc(-n2cccn2)c1 (centres unmarked) [Example 336]
10 to 50 µM

====

target: PLK2 (Homo sapiens, UniProt Q9NYY3); test: PLK TR-FRET peptide assay, PLK2; format: biochemical; settings: PLK TR-FRET peptide assay, GST-PLK2, 60 min reaction; read-out: Plk2 IC50
Sequence (Q9NYY3 whole entry): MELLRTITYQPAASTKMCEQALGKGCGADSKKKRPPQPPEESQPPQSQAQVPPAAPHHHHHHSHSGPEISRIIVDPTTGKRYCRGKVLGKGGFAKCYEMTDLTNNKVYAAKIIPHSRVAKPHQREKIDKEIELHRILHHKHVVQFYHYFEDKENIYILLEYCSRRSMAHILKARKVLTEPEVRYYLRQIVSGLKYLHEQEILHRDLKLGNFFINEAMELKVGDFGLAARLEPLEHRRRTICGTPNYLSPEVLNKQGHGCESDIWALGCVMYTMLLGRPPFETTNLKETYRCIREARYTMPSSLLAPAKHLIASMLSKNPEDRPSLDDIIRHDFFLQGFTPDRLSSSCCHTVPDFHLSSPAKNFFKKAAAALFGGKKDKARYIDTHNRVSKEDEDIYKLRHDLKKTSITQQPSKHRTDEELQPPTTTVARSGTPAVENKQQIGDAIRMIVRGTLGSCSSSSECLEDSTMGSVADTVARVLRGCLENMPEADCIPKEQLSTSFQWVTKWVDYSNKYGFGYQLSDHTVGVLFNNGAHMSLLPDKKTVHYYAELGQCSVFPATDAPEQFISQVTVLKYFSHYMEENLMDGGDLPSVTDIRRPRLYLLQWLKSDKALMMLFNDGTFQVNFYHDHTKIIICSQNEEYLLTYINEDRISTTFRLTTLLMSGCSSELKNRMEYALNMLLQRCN
pIC50: −log10 of the molar value.
metric: pIC50

Record excerpt, results attached:
compound: CC[C@@H]1C(=O)N(C)c2cnc(-n3ccnc3-c3cccc(F)c3F)nc2N1CCC(F)(F)F
reported-measurement: > 6.00
--
compound: CC[C@@H]1CC[C@@]2(CC)C(=O)N(C)c3cnc(-n4ccnc4C)nc3N12
reported-measurement: 5.00 to 6.00
--
compound: CC[C@@H]1C(=O)N(C)c2cnc(-n3ccnc3-c3ccc(C#N)cc3)nc2N1C(C)C
reported-measurement: > 6.00
--
compound: CC[C@@H]1C(=O)N(C)c2cnc(-c3ccncc3CNS(=O)(=O)c3ccccc3)nc2N1C1CCCC1
reported-measurement: 5.00 to 6.00

What does the record list as pIC50 for CCC1C(=O)N(C)c2cnc(-n3ccnc3-c3ccc(F)cc3)nc2N1c1cccc(C#N)c1 (centres unmarked) ?
> 6.00

Look up pIC50: CCC12CCCCN1c1nc(-n3ccnc3)ncc1N(C)C2=O (racemic)
4.30 to 5.00

Could you share which pIC50 value was measured for `CC[C@@]12CCCN1c1nc(-n3ccnc3-c3cnc4ccccc4c3)ncc1N(C)C2=O` ?
> 6.00

Return reported pIC50; argument: `CC[C@@H]1C(=O)N(C)c2cnc(-n3ccnc3-c3ccc(F)c(F)c3)nc2N1C1CCC1`
> 6.00

====

molecular target: UniProtKB Q9H4B4; test: PLK TR-FRET peptide assay, PLK3; assay type: biochemical; conditions: GST-PLK3, 15 min reaction, read-out: Plk3 IC50
Sequence (Q9H4B4 whole entry): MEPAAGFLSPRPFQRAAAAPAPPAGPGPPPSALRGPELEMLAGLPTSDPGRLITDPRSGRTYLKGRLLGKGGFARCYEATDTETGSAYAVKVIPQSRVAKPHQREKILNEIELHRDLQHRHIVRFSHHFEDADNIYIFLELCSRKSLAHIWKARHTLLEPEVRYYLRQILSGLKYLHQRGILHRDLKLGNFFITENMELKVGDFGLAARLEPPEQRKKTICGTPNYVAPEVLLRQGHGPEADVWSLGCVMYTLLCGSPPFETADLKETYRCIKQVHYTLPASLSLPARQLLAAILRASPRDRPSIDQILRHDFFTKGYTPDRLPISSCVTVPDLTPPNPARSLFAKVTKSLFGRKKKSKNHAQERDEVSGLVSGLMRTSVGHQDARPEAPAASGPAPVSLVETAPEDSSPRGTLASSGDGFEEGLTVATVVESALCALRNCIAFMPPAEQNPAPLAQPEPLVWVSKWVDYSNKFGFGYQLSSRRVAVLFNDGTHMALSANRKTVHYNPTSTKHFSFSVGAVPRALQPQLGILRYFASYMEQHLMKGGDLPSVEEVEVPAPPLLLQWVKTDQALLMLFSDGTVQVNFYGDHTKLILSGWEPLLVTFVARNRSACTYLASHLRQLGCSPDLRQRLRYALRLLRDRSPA
metric: IC50

Solved entries:
compound: CC[C@@H]1C(=O)N(C)c2cnc(-c3ccncc3NC(=O)CC(C)(C)C)nc2N1C1CCCC1 [Example 108]
IC50: > 50 µM
--
compound: CCC1C(=O)N(C)c2cnc(-c3cn[nH]c3-c3nccs3)nc2N1c1ccc(F)cc1 (stereo not shown) [Example 370]
IC50: 1 to 10 µM
--
compound: CC[C@@H]1C(=O)N(C)c2cnc(-c3ccncc3NC(=O)OC(C)(C)C)nc2N1C(C)C [Example 94]
IC50: > 50 µM

Turning now to a further record.
State the recorded IC50 for this entry: CC[C@@H]1C(=O)N(C)c2cnc(-n3ccnc3-c3ccc(F)cc3F)nc2N1C1CCOC1 (stereo partly shown) [Example 268]
1 to 10 µM

====

target: PLK2 (Homo sapiens); assay: PLK TR-FRET peptide assay, PLK2; type: biochemical; conditions: PLK TR-FRET peptide assay, GST-PLK2, 60 min reaction; read-out: Plk2 IC50
# key: entry, value: IC50

Examples with their reported IC50 follow.
compound: CC[C@@H]1C(=O)N(C)c2cnc(-c3ccncc3NC(C)=O)nc2N1C(C)C [Example 118]
IC50: 1000 to 10000 nM

compound: CC[C@@]12CCCN1c1nc(-n3ccnc3-c3ccc(F)c(Cl)c3)ncc1N(C)C2=O [Example 213]
IC50: < 1000 nM

compound: CC[C@@]12CCCCN1c1nc(-n3ccnc3-c3ccc(F)cc3F)ncc1N(C)C2=O [Example 269]
IC50: < 1000 nM

compound: CCC12CCCCN1c1nc(-n3ccnc3-c3cccc(F)c3)ncc1N(C)C2=O (racemic) [Example 239]
IC50: < 1000 nM

compound: CC[C@@H]1C(=O)N(C)c2cnc(-c3ccncc3CNS(C)(=O)=O)nc2N1C1CCCC1 [Example 124]
IC50: 1000 to 10000 nM

Now look at this entry.
What reported IC50 corresponds to CC[C@@H]1C(=O)N(C)c2cnc(-n3ccnc3-c3ccc(F)cc3)nc2N1c1cccc(C#N)c1 [Example 358] on PLK2 (Homo sapiens)?
< 1000 nM

====

# reported IC50; entries follow
molecular target: PLK1 (Homo sapiens, UniProt P53350); assay: PLK TR-FRET peptide assay, PLK1; format: biochemical; details: GST-PLK1, 60 min reaction

Reference set, count: 3
compound: CCC12CCCCCN1c1nc(-n3ncnc3-c3cccc4ncccc34)ncc1N(C)C2=O (racemic) [Example 217]
IC50: > 50 µM
--
compound: CC(C)N1c2nc(-n3ccnc3-c3ccc(F)cc3)ncc2N(C)C(=O)C1(C)C [Example 298]
IC50: > 50 µM
--
compound: CC[C@@H]1C(=O)N(C)c2cnc(-n3cnc(-c4nccs4)c3)nc2N1C1CCCC1 [Example 60]
IC50: < 1 µM

Look at this compound and give its reported IC50. CC[C@@H]1C(=O)N(C)c2cnc(-c3cc4ccccc4[nH]3)nc2N1C1CCCC1 [Example 9]
< 1 µM

I would be grateful if you could share the reported IC50 for CC[C@@H]1C(=O)N(C)c2cnc(-n3ccnc3N3CCCC3=O)nc2N1C1CCCC1 [Example 82] .
1 to 10 µM

I would be grateful if you could share the reported IC50 for CC[C@@]12CCCN1c1nc(-n3ccnc3-c3nccc4ccccc34)ncc1N(C)C2=O [Example 206] .
> 50 µM

Any idea what its IC50 is? The compound is CC[C@@H]1C(=O)N(C)c2cnc(-n3ccnc3-c3cccc(Cl)c3)nc2N1C(C)C [Example 204]
< 1 µM

Consider the compound shown here: CC[C@@H]1C(=O)N(C)c2cnc(-n3ccnc3)nc2N1C1CC(F)(F)C1 [Example 303] What is its recorded IC50?
10 to 50 µM

Quick check: IC50 of CC[C@@]12CCCN1c1nc(N3CCN=C3c3ccccc3)ncc1N(C)C2=O [Example 281] ?
> 50 µM

For the compound CC[C@@H]1C(=O)N(C)c2cnc(-c3cn[nH]c3-c3nccs3)nc2N1C(C)C1CC1 (some centres unmarked) [Example 357] , what IC50 is on record?
< 1 µM

IC50 lookup needed for CC[C@@H]1C(=O)N(C)c2cnc(-c3cccc4cc[nH]c34)nc2N1C1CCCC1 [Example 10] , thanks.
10 to 50 µM

State the recorded IC50 for this entry: CC[C@@]12CCCCN1c1nc(-n3ccnc3-c3ccccc3)ncc1N(C)C2=O [Example 262]
1 to 10 µM

Need IC50, item CC[C@@H]1C(=O)N(C)c2cnc(-n3ccnc3-c3ccc(F)cc3)nc2N1c1cccc(C#N)c1 [Example 358]
1 to 10 µM

Sample CC[C@]12CCCCN1c1nc(-n3ccnc3-c3cccc(F)c3F)ncc1N(C)C2=O [Example 261] — what was its IC50?
> 50 µM

I am curious: what IC50 value has been reported for CC[C@@H]1C(=O)N(C)c2cnc(-c3cn[nH]c3-c3ccc(F)cc3F)nc2N1C(C)C [Example 312] ?
< 1 µM

I would be grateful if you could share the reported IC50 for CC[C@@H]1C(=O)N(C)c2cnc(-c3ccncc3CNC(C)=O)nc2N1C(C)C [Example 129] .
> 50 µM

# input compound: CC[C@@H]1C(=O)N(C)c2cnc(N3CCCC3)nc2N1C1CCCC1 [Example 1] ; wanted: its IC50
10 to 50 µM

====

Parameter: pIC50. Scope: all listed entries.
target: PLK1 (Homo sapiens, UniProt P53350); assay: PLK TR-FRET peptide assay, PLK1; assay type: biochemical; conditions: GST-PLK1, 60 min reaction
pIC50: −log10 of the molar value.

API: value(readout=pIC50, system=PLK1 (Homo sapiens, UniProt P53350)) for record CC[C@@H]1C(=O)N(C)c2cnc(-n3ccnc3-c3ccncc3)nc2N1CCC(F)(F)F [Example 234]
5.00 to 6.00

====

Readings of pIC50 for the listed molecules
biological target: PLK2 (Homo sapiens, UniProt Q9NYY3); experiment: PLK TR-FRET peptide assay, PLK2; assay type: biochemical; conditions: PLK TR-FRET peptide assay, GST-PLK2, 60 min reaction; read-out: Plk2 IC50
pIC50: −log10 of the molar value.

molecule: CC[C@]12CCCCN1c1nc(-n3ccnc3-c3cc(F)c(F)c(F)c3)ncc1N(C)C2=O
measured-on: PLK2 (Homo sapiens, UniProt Q9NYY3)
metric: pIC50
reported-measurement: < 4.30

molecule: CC[C@@H]1C(=O)N(C)c2cnc(-c3cccc(NS(C)(=O)=O)c3)nc2N1C1CCCC1
measured-on: PLK2 (Homo sapiens, UniProt Q9NYY3)
metric: pIC50
reported-measurement: > 6.00

molecule: CCC1C(=O)N(C)c2cnc(-n3ccnc3)nc2N1c1ccccc1 (centres unmarked)
measured-on: PLK2 (Homo sapiens, UniProt Q9NYY3)
metric: pIC50
reported-measurement: 5.00 to 6.00

molecule: CC[C@@H]1C(=O)N(C)c2cnc(-c3sc(Br)nc3-c3ccc(F)cc3)nc2N1C(C)C
measured-on: PLK2 (Homo sapiens, UniProt Q9NYY3)
metric: pIC50
reported-measurement: > 6.00

molecule: CC[C@@H]1C(=O)N(C)c2cnc(-n3ccnc3-n3cccn3)nc2N1C1CCCC1
measured-on: PLK2 (Homo sapiens, UniProt Q9NYY3)
metric: pIC50
reported-measurement: > 6.00

molecule: CC[C@@]12CCCN1c1nc(-n3ccnc3-c3cccc(OC(F)(F)F)c3)ncc1N(C)C2=O
measured-on: PLK2 (Homo sapiens, UniProt Q9NYY3)
metric: pIC50
reported-measurement: > 6.00

molecule: CC[C@@H]1C(=O)N(C)c2cnc(-n3ccnc3C3=CCCC3)nc2N1C1CCCC1
measured-on: PLK2 (Homo sapiens, UniProt Q9NYY3)
metric: pIC50
reported-measurement: > 6.00

// next item, pIC50 requested
Fill in: pIC50 of `CN1C(=O)[C@@H](CC(F)(F)F)N(CCC(F)(F)F)c2nc(-n3ccnc3-c3ccc(F)cc3F)ncc21` is ___
> 6.00
